Experiment: Clinical pharmacokinetics of PU-H71 in plasma and urine
Format: in vivo, human
Settings: human, plasma, iv, 354 mg/m^2
metric: AUC(0-t) (µM·h)
Numbers only, in µM·h.

INPUT: // returns reported AUC(0-t) for input `CC(C)NCCCn1c(Sc2cc3c(cc2I)OCO3)nc2c(N)ncnc21`
OUTPUT: 114

###

Assay: Clinical pharmacokinetics of PU-H71 in plasma and urine
Assay type: in vivo, human
Conditions: human, plasma, iv, 10 mg/m^2
metric: clearance (mL/min/kg)
Give bare numbers, in mL/min/kg.

INPUT: // returns reported clearance for input `CC(C)NCCCn1c(Sc2cc3c(cc2I)OCO3)nc2c(N)ncnc21`
OUTPUT: 17.2

###

Experiment: Clinical pharmacokinetics of PU-H71 in plasma and urine
Assay type: in vivo, human
Settings: human, plasma, iv, 200 mg/m^2
metric: half-life (h)
Give bare numbers, in h.

INPUT: // returns reported half-life for input `CC(C)NCCCn1c(Sc2cc3c(cc2I)OCO3)nc2c(N)ncnc21`
OUTPUT: 7.1

###

Experiment: Clinical pharmacokinetics of PU-H71 in plasma and urine
Assay type: in vivo, human
Settings: human, plasma, iv, 150 mg/m^2
metric: Cmax (µM)
Answers are plain numbers, in µM.

INPUT: // returns reported Cmax for input CC(C)NCCCn1c(Sc2cc3c(cc2I)OCO3)nc2c(N)ncnc21 [PU-H71]
OUTPUT: 8.7

###

Test: Clinical pharmacokinetics of PU-H71 in plasma and urine
Type: in vivo, human
Settings: human, plasma, iv, 200 mg/m^2
metric: Cmax (µM)
Numbers only, in µM.

INPUT: // returns reported Cmax for input `CC(C)NCCCn1c(Sc2cc3c(cc2I)OCO3)nc2c(N)ncnc21`
OUTPUT: 8

###

Assay: Clinical pharmacokinetics of PU-H71 in plasma and urine
Format: in vivo, human
Settings: human, plasma, iv, 150 mg/m^2
metric: half-life (h)
One number for each entry, in h.

INPUT: // returns reported half-life for input CC(C)NCCCn1c(Sc2cc3c(cc2I)OCO3)nc2c(N)ncnc21 [PU-H71]
OUTPUT: 7.2

###

Assay: Clinical pharmacokinetics of PU-H71 in plasma and urine
Format: in vivo, human
Conditions: human, plasma, intravenous
metric: Tmax

INPUT: // returns reported Tmax for input `CC(C)NCCCn1c(Sc2cc3c(cc2I)OCO3)nc2c(N)ncnc21`
OUTPUT: ≤ 1 h

###

Assay: Clinical pharmacokinetics of PU-H71 in plasma and urine
Assay type: in vivo, human
Details: human, plasma, iv, 20 mg/m^2
metric: AUC(0-inf)

INPUT: // returns reported AUC(0-inf) for input `CC(C)NCCCn1c(Sc2cc3c(cc2I)OCO3)nc2c(N)ncnc21`
OUTPUT: 1.67 µM·h

###

Assay: Clinical pharmacokinetics of PU-H71 in plasma and urine
Assay type: in vivo, human
Conditions: human, plasma, iv, 200 mg/m^2
metric: clearance (mL/min/kg)
One number for each entry, in mL/min/kg.

INPUT: // returns reported clearance for input CC(C)NCCCn1c(Sc2cc3c(cc2I)OCO3)nc2c(N)ncnc21 [PU-H71]
OUTPUT: 4.33

###

Test: Clinical pharmacokinetics of PU-H71 in plasma and urine
Type: in vivo, human
Settings: human, plasma, iv, 110 mg/m^2
metric: AUC(0-inf) (µM·h)
Give bare numbers, in µM·h.

INPUT: // returns reported AUC(0-inf) for input CC(C)NCCCn1c(Sc2cc3c(cc2I)OCO3)nc2c(N)ncnc21 [PU-H71]
OUTPUT: 22.9

###

Experiment: Clinical pharmacokinetics of PU-H71 in plasma and urine
Format: in vivo, human
Conditions: human, plasma, iv, 10 mg/m^2
metric: Cmax (nM)
One number for each entry, in nM.

INPUT: // returns reported Cmax for input `CC(C)NCCCn1c(Sc2cc3c(cc2I)OCO3)nc2c(N)ncnc21`
OUTPUT: 200

###

Assay: Clinical pharmacokinetics of PU-H71 in plasma and urine
Assay type: in vivo, human
Settings: human, plasma, iv, 150 mg/m^2
metric: AUC(0-t) (µM·h)
Give bare numbers, in µM·h.

INPUT: // returns reported AUC(0-t) for input CC(C)NCCCn1c(Sc2cc3c(cc2I)OCO3)nc2c(N)ncnc21 [PU-H71]
OUTPUT: 25.6

###

Assay: Clinical pharmacokinetics of PU-H71 in plasma and urine
Format: in vivo, human
Conditions: human, plasma, iv, 266 mg/m^2
metric: half-life
Note: a bare number is incomplete; add the unit.

INPUT: // returns reported half-life for input `CC(C)NCCCn1c(Sc2cc3c(cc2I)OCO3)nc2c(N)ncnc21`
OUTPUT: 612 min

###

Experiment: Clinical pharmacokinetics of PU-H71 in plasma and urine
Assay type: in vivo, human
Details: human, plasma, iv, 150 mg/m^2
metric: clearance (mL/min/kg)
Give bare numbers, in mL/min/kg.

INPUT: // returns reported clearance for input `CC(C)NCCCn1c(Sc2cc3c(cc2I)OCO3)nc2c(N)ncnc21`
OUTPUT: 4.5

###

Test: Clinical pharmacokinetics of PU-H71 in plasma and urine
Assay type: in vivo, human
Settings: human, plasma, iv, 354 mg/m^2
metric: Cmax (µM)
Numbers only, in µM.

INPUT: // returns reported Cmax for input `CC(C)NCCCn1c(Sc2cc3c(cc2I)OCO3)nc2c(N)ncnc21`
OUTPUT: 17.3

###

Test: Clinical pharmacokinetics of PU-H71 in plasma and urine
Format: in vivo, human
Settings: human, plasma, iv, 80 mg/m^2
metric: clearance (mL/min/kg)
One number for each entry, in mL/min/kg.

INPUT: // returns reported clearance for input `CC(C)NCCCn1c(Sc2cc3c(cc2I)OCO3)nc2c(N)ncnc21`
OUTPUT: 4.17

###

Experiment: Clinical pharmacokinetics of PU-H71 in plasma and urine
Type: in vivo, human
Conditions: human, plasma, iv, 470 mg/m^2
metric: AUC(0-inf) (µM·h)
Numbers only, in µM·h.

INPUT: // returns reported AUC(0-inf) for input CC(C)NCCCn1c(Sc2cc3c(cc2I)OCO3)nc2c(N)ncnc21 [PU-H71]
OUTPUT: 203

###

Assay: Clinical pharmacokinetics of PU-H71 in plasma and urine
Format: in vivo, human
Conditions: human, plasma, iv, 20 mg/m^2
metric: clearance (mL/min/kg)
One number for each entry, in mL/min/kg.

INPUT: // returns reported clearance for input `CC(C)NCCCn1c(Sc2cc3c(cc2I)OCO3)nc2c(N)ncnc21`
OUTPUT: 10.5

###

Assay: Clinical pharmacokinetics of PU-H71 in plasma and urine
Format: in vivo, human
Conditions: human, plasma, intravenous
metric: half-life

INPUT: // returns reported half-life for input `CC(C)NCCCn1c(Sc2cc3c(cc2I)OCO3)nc2c(N)ncnc21`
OUTPUT: 2.7 to 19.8 h

###

Assay: Clinical pharmacokinetics of PU-H71 in plasma and urine
Assay type: in vivo, human
Settings: human, plasma, iv, 20 mg/m^2
metric: half-life (h)
Give bare numbers, in h.

INPUT: // returns reported half-life for input `CC(C)NCCCn1c(Sc2cc3c(cc2I)OCO3)nc2c(N)ncnc21`
OUTPUT: 10.5

###

Assay: Clinical pharmacokinetics of PU-H71 in plasma and urine
Assay type: in vivo, human
Details: human, plasma, iv, 80 mg/m^2
metric: AUC(0-inf)
Note: a bare number is incomplete; add the unit.

INPUT: // returns reported AUC(0-inf) for input `CC(C)NCCCn1c(Sc2cc3c(cc2I)OCO3)nc2c(N)ncnc21`
OUTPUT: 16.8 µM·h

###

Test: Clinical pharmacokinetics of PU-H71 in plasma and urine
Assay type: in vivo, human
Settings: human, plasma, iv, 80 mg/m^2
metric: half-life

INPUT: // returns reported half-life for input `CC(C)NCCCn1c(Sc2cc3c(cc2I)OCO3)nc2c(N)ncnc21`
OUTPUT: 6.7 h

###

Test: Clinical pharmacokinetics of PU-H71 in plasma and urine
Format: in vivo, human
Conditions: human, plasma, iv
metric: half-life (h)
Answers are plain numbers, in h.

INPUT: // returns reported half-life for input CC(C)NCCCn1c(Sc2cc3c(cc2I)OCO3)nc2c(N)ncnc21 [PU-H71]
OUTPUT: 8.4

###

Test: Clinical pharmacokinetics of PU-H71 in plasma and urine
Format: in vivo, human
Details: human, plasma, iv, 10 mg/m^2
metric: AUC(0-inf) (nM·h)
One number for each entry, in nM·h.

INPUT: // returns reported AUC(0-inf) for input `CC(C)NCCCn1c(Sc2cc3c(cc2I)OCO3)nc2c(N)ncnc21`
OUTPUT: 517

###

Assay: Clinical pharmacokinetics of PU-H71 in plasma and urine
Format: in vivo, human
Settings: human, plasma, iv, 266 mg/m^2
metric: AUC(0-inf) (µM·h)
Answers are plain numbers, in µM·h.

INPUT: // returns reported AUC(0-inf) for input CC(C)NCCCn1c(Sc2cc3c(cc2I)OCO3)nc2c(N)ncnc21 [PU-H71]
OUTPUT: 90.8
